From: patent US20250340659A1

# Measured on: T1, recombinant canine OX40L ECD-TNCc-HIS protein (canine)
# T1 construct: also called Trimeric OX40L probe (HIS tag); trimeric canine OX40L
# T1 chain: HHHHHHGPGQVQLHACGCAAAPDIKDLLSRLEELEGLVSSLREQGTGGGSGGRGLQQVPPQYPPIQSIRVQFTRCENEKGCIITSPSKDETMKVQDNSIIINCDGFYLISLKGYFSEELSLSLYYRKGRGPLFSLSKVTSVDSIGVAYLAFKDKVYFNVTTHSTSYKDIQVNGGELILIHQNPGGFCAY
# Experiment summary: SPR Koff (kd1)
# Procedure: Affinity (Kd) of OX40L antibodies is measured by SPR, using a recombinant canine OX40L ECD-TNCc-HIS protein (Seq ID 811) as the capturing agent (FIG. 5B). Functional affinity is determined using a Biakore 8K (Cytiva). in brief, purified OX40L ECD-TNCc-HIS protein is covalently bound at low density to the surface of a CM5 sensor chip (Cytiva) by amine coupling, using the manufacturer's recommended protocol. […]
Here, each record is paired with measured koff data.
Numeric answer only, unit s⁻¹ assumed.

INSERT INTO results (binder, number) VALUES
  ('PMX058 (antibody, V domains shown, also called PMX58) VH: EVQLVESGGDLVKPEGSLRLSCVVSDFTFGSYGMSWVRQAPGKGLQWVAYISSDGRSTSYTDAVKGRFTISRDNAKNTLHLQMNSLRTEDTAVYYCAKLGRGFAFGYWGQGTLVTVSS VL: SYVLTQLPSKNVTLKQPAHITCGGDNIGSKSVHWYQQKLGQAPVLIIYYDSNRPTGIPERFSGANSGNTATLTISGALAEDEADYYCQVWDSSASVFGGGTHLTVL', 0.0144),
  ('PMX048 (antibody, V domains shown, also called PMX48) VH: EVQLVESGGDLVKPGGSLRLSCVASGFTFNNYEMYWVRQAPGKGLEWVARIYESGTTTYSAEADTGRFTISRDNAKNMVFLQMNSLRAEDTAVYYCASASSSTWRFDYWGQGTLVTVSS VL: SYVLTQLPSVSVTLGQTARITCGGDSIGRKNVYWFQQKLGQAPVLIIYDDRSRPSGIPERFSGANSGNTATLTISGALAEDEADYYCQVWDSSTGVFGGGTHLTVL', 0.00485),
  ('PMX156 (antibody, V domains shown) VH: ELQLVESGGDLVKPAGSLRLSCVASGFTFSNFRMSWVRQAPGKGLQFVAGINSDGYSTQYRDDVKGRFTISRDNTEKTLYLQMNNLRVEDTAMYYCVKDQGSWGGNFDYWGQGTLVTVSS VL: SYGLTQPPSVNVTLRETAHITCGGDSIGSKYVQWIQQIPGQAPVVIIYKDRNRPTGIPERFSGANSGNTATLTISGALAEDEADYYCQVGDSGTSVFGGGTHLTVL', 0.102),
  ('PMX042 (antibody, V domains shown, also called PMX42) VH: EVQLVESGGDLVKPGGSLRLSCVASGFTFSSYHMSWVRQAPGKGLQWVAYITSGGSTTSYADAVKGRFTISRDNAKNTLYLQMDSLRADDTAVYYCASDLVLLLGGADYWGQGTLVTVSS VL: SYELTQPPSVNVTLRETAHITCGGDSIGRKYVQWIQQHPGQAPVVIIYKDYNRPTGIPERFSGANSGNTATLTISGALAEDEADYYCQVGDSGTKAVFGGGTHLTVL', 0.0292);

Could you now look at the following binder, please?
Record PMX032 (antibody, V domains shown, also called PMX32) VH: EVQLVESGGDLVKPGGSLRLSCVASGFTFSSYHMSWVRQAPGKGLQWVAYITSGGRTTSYADAVKGRFIISRDNAKNTLYLQMNSLRAEDTAVYYCASDLVLILGGADYWGQGTLVTVSS VL: SYELTQPPSVNVTLRETAHITCGGDSIGRKYVQWIQQNPGQAPVVIIYKDNNRPTGIPERFSGANSGNTATLTISGALAEDEADYYCQVGDSGSKAVFGGGTHLTVL . Reported koff: 0.00586
